Target: hSTING-WT (Homo sapiens (Human), UniProt Q86WV6, H232R)
Sequence (Q86WV6 140-379 H232R): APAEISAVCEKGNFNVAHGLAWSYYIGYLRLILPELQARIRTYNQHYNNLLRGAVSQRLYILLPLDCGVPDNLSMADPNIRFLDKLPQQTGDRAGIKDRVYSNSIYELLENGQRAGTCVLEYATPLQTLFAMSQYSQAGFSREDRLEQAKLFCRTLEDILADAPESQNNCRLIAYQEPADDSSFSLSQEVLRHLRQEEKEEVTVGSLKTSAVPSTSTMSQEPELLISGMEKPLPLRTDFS
Experiment: Radiometric filtration binding competition assay, hSTING-WT
The compounds listed here are annotated with their IC50.

Some compounds with recorded IC50:
- CC(C)c1ccc2c(=O)c3ccc(Cl)c(C(F)(F)F)c3n(CC(=O)O)c2c1: 20 to 100 µM
- C=CCOc1c(Cl)ccc2c(=O)c3ccccc3n(CC(=O)O)c12: 20 to 100 µM
- O=C(O)Cn1c2cc(C3CCCCC3)ccc2c(=O)c2ccc(Cl)c(Br)c21: < 20 µM

Exam item: Value lookup for IC50; key = Cc1ccc2c(=O)c3ccc(Cl)c(-c4ccccc4)c3n(CC(=O)O)c2c1
Marked response: < 20 µM

Exam item: Follow-up item: O=C(O)Cn1c2ccccc2c(=O)c2ccc(Cl)c(OC3CCC3)c21
Marked response: 100 to 300 µM

---

Target: mSTING-R232 (Mus musculus)
Assay: STING differential scanning fluorimetry (DSF) assay, mouse STING
Conditions: net shift in melting temperature
MEASUREMENT KIND: MOUSE DSF_6xHIS-SUMO Tm Shift (° C.)

Record excerpt, results attached:
* CC(C)c1ccc2c(=O)c3ccc(C#N)c(Cl)c3n(CC(=O)O)c2c1 | A (“A” < 0° C.)
* Cc1ccc2c(=O)c3ccc(Cl)cc3n([C@@H](C)C(=O)O)c2c1 | B (“B” = 0-5° C.)
* COc1cccc2c(=O)c3ccccc3n(CC(=O)O)c12 | A (“A” < 0° C.)
* COc1c(Cl)ccc2c(=O)c3ccc(SC(C)C)cc3n(CC(=O)O)c12 | D (“D” > 15° C.)
* COc1c(Cl)ccc2c(=O)c3ccc(Nc4ccccc4Cl)cc3n(CC(=O)O)c12 | D (“D” > 15° C.)
* O=C(O)Cn1c2cc(NC3CCC3)ccc2c(=O)c2ccc(Cl)c(Br)c21 | D (“D” > 15° C.)

Exam item: Requested read-out MOUSE DSF_6xHIS-SUMO Tm Shift (° C.), target or system mSTING-R232 (Mus musculus), entry CC(C)(C)c1ccc2c(=O)c3ccc(Cl)c(Br)c3n(CC(=O)O)c2c1
Marked response: D (“D” > 15° C.)

Exam item: // same read-out, input: O=C(O)Cn1c2cc(NC3CCCCC3)ccc2c(=O)c2ccc(Cl)c(Br)c21
Marked response: D (“D” > 15° C.)

Exam item: Lookup O=C(O)Cn1c2cc(NC3CCNCC3)ccc2c(=O)c2ccc(Cl)c(Cl)c21
Marked response: B (“B” = 0-5° C.)

---

Biological target: hSTING-HAQ (Homo sapiens (Human), UniProt Q86WV6, G230A/H232R/R293Q)
Sequence (Q86WV6 140-379 G230A/H232R/R293Q): as the sequence (Q86WV6 140-379 H232R) above, with G91A, R154Q counted along it
Assay: STING differential scanning fluorimetry (DSF) assay, HAQ human STING
Conditions: HAQ human STING aa140-379, net shift in melting temperature
MEASUREMENT KIND: HAQ_DSF_hSWAT Tm Shift (° C.)

- O=C(O)Cn1c2cc(-c3ccc(O)cc3)ccc2c(=O)c2ccc(Cl)c(Cl)c21 [Compound 223]: D (“D” > 7° C.)
- CC1(C)CCC(c2ccc3c(=O)c4ccc(Cl)c(Cl)c4n(CC(=O)O)c3c2)CC1 [Compound 160]: B (“B” = 0-2° C.)
- CC(C)c1ccc2c(=O)c3ccc(Cl)c(Br)c3n(CC(=O)O)c2c1 [Compound 111]: D (“D” > 7° C.)
- Cc1ccc(-c2ccc3c(=O)c4ccc(Cl)c(Cl)c4n(CC(=O)O)c3c2)cc1Cl [Compound 164]: B (“B” = 0-2° C.)

---

Recorded IC50, one value per entry.
Target: hSTING-WT (Homo sapiens (Human), UniProt Q86WV6, H232R)
Assay: Radiometric filtration binding competition assay, hSTING-WT

• CSc1c(Cl)ccc2c(=O)c3ccc(Nc4ncccn4)cc3n(CC(=O)O)c12 = < 20 µM
• CC1(C)CCCC(Nc2ccc3c(=O)c4ccc(Cl)c(Cl)c4n(CC(=O)O)c3c2)C1 (centres unmarked) = 20 to 100 µM
• O=C(O)Cn1c2cc(NC3CCNCC3)ccc2c(=O)c2ccc(Cl)c(Cl)c21 = > 300 µM
• O=C(O)Cn1c2cc(-c3ccc(Cl)cc3)ccc2c(=O)c2ccc(Cl)c(Cl)c21 = 100 to 300 µM

Exam item: # get_value(readout='IC50', item= COc1c(Cl)ccc2c(=O)c3ccc(SC4CCCCC4)cc3n(CC(=O)O)c12 )
Marked response: < 20 µM

Exam item: Also CC(O)c1ccc2c(=O)c3ccc(Cl)c(Cl)c3n(CC(=O)O)c2c1 (centres unmarked) , if possible.
Marked response: > 300 µM

Exam item: Try the compound CCOc1c(Cl)ccc2c(=O)c3ccc(CC)cc3n(CC(=O)O)c12
Marked response: < 20 µM

Exam item: Now consider CC(C)c1ccc2c(c1)c1ccc(Cl)c(Cl)c1n2CC(=O)O .
Marked response: 20 to 100 µM

---

Biological target: hSTING-HAQ (Homo sapiens (Human), UniProt Q86WV6, G230A/H232R/R293Q)
Assay: Radiometric filtration binding competition assay, hSTING-HAQ
pIC50: −log10 of the molar value.
MEASUREMENT KIND: pIC50

* CSc1c(Cl)ccc2c(=O)c3ccc(C(C)(C)C)cc3n(CC(=O)O)c12 [Compound 215] | > 4.70
* CC(C)c1ccc2c(=O)c3ccc(Cl)c(C(F)(F)F)c3n(CC(=O)O)c2c1 [Compound 192] | 4.00 to 4.70
* CC1(C)CC=C(c2ccc3c(=O)c4ccc(Cl)c(Cl)c4n(CC(=O)O)c3c2)CC1 [Compound 159] | 4.00 to 4.70
* COc1c(Cl)ccc2c(=O)c3ccc(C4CCCCC4)cc3n(CC(=O)O)c12 [Compound 220] | 4.00 to 4.70
* COc1c(Cl)ccc2c(=O)c3ccc(Nc4ccccc4)cc3n(CC(=O)O)c12 [Compound 207] | 4.00 to 4.70
* C#Cc1c(Cl)ccc2c(=O)c3ccccc3n(CC(=O)O)c12 [Compound 197] | < 3.52

Exam item: State its pIC50 on hSTING-HAQ (Homo sapiens (Human), UniProt Q86WV6, G230A/H232R/R293Q): CSc1c(Cl)ccc2c(=O)c3ccccc3n(CC(=O)O)c12 [Compound 212]
Marked response: < 3.52

Exam item: Please answer likewise for O=C(O)Cn1c2cc(C3CCCCC3)ccc2c(=O)c2ccc(Cl)c(Br)c21 [Compound 147]
Marked response: 4.00 to 4.70

Exam item: Further, for COc1c(Cl)ccc2c(=O)c3ccc(C(C)(C)C)cc3n(CC(=O)O)c12 [Compound 204] ?
Marked response: 4.00 to 4.70

---

The following molecules are shown together with reported Emax values.
Biological target: STING protein (Homo sapiens (Human), UniProt Q86WV6, H232R)
Sequence (Q86WV6 whole entry H232R): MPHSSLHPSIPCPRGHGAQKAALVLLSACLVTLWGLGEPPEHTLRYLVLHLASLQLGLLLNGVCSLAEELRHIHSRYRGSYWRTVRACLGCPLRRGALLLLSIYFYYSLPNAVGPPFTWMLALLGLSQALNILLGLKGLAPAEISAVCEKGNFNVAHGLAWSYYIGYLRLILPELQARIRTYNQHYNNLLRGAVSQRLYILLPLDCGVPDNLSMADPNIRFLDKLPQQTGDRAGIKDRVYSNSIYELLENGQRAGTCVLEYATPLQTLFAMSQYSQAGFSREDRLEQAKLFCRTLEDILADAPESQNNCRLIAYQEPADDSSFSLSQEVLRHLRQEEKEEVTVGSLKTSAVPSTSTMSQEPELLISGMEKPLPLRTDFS
Assay: Cell based reporter assay of IRF activation (IRF-luciferase), THP1-dual-KI R232
Conditions: read-out: THP1-dual-KI R232_IRF(Luciferase)_Activity Maximum measured (%)

Here are 7 molecules together with their reported answers.
* CSc1c(Cl)ccc2c(=O)c3ccc(C(C)(C)C)cc3n(CC(=O)O)c12 | > 50%
* COc1c(Cl)ccc2c(=O)c3ccc(C(C)(C)C)cc3n(CC(=O)O)c12 | > 50%
* Cc1ccc(-c2ccc3c(=O)c4ccc(Cl)c(Cl)c4n(CC(=O)O)c3c2)cc1F | 5 to 25%
* Cc1ccc2c(=O)c3ccc(Cl)c(OCC4CC4)c3n(CC(=O)O)c2c1 | 25 to 50%
* COc1c(Cl)ccc2c(=O)c3ccc(C4CCCCC4)cc3n(CC(=O)O)c12 | > 50%
* O=C(O)Cn1c2cc(Nc3ccccc3)ccc2c(=O)c2ccc(Cl)c(Cl)c21 | > 50%
* C[C@@H](O)COc1c(Cl)ccc2c(=O)c3ccccc3n(CC(=O)O)c12 | < 5%

Exam item: What does the data say about its Emax? Entry: CCS(=O)(=O)NC(=O)Cn1c2cc(C)ccc2c(=O)c2ccc(Cl)c(OC)c21
Marked response: > 50%

---

Biological target: STING protein (Homo sapiens (Human), UniProt Q86WV6, H232R)
Test: Cell based reporter assay of IRF activation (IRF-luciferase), THP1-dual-KI R232
Settings: read-out: THP1-dual-KI R232_IRF(Luciferase)_Activity Maximum measured (%)
MEASUREMENT KIND: Emax

Illustrative cases are given below, each with its answer.
• CCOc1c(Cl)ccc2c(=O)c3ccccc3n(CC(=O)O)c12 [Compound 244] = > 50%
• O=C(O)Cn1c2cc(-c3cccc(C(F)(F)F)c3)ccc2c(=O)c2ccc(Cl)c(Cl)c21 [Compound 161] = < 5%
• COCc1c(Cl)ccc2c(=O)c3ccccc3n(CC(=O)O)c12 [Compound 229] = < 5%
• C=CCOc1c(Cl)ccc2c(=O)c3ccc(C)cc3n(CC(=O)O)c12 [Compound 311] = > 50%
• Cc1cccc(-c2ccc3c(=O)c4ccc(Cl)c(Cl)c4n(CC(=O)O)c3c2)c1 [Compound 151] = < 5%

Exam item: For the molecule shown here, C#CCOc1c(Cl)ccc2c(=O)c3ccccc3n(CC(=O)O)c12 [Compound 272] , give the reported Emax.
Marked response: < 5%

Exam item: # repeat for C#Cc1c(Cl)ccc2c(=O)c3ccccc3n(CC(=O)O)c12 [Compound 197]
Marked response: < 5%

Exam item: What do we get for CN(C)c1c(Cl)ccc2c(=O)c3ccc(C(C)(C)C)cc3n(CC(=O)O)c12 [Compound 324] ?
Marked response: > 50%

Exam item: Okay, and CSc1c(Cl)ccc2c(=O)c3ccc(C)cc3n(CC(=O)O)c12 [Compound 279] ?
Marked response: > 50%

Exam item: Thanks! And Cc1ccc2c(=O)c3ccc(Cl)cc3n(C(C)C(=O)O)c2c1 (centres unmarked) [Compound 171] ?
Marked response: < 5%

Exam item: Quick one: CC1(C)CCC(c2ccc3c(=O)c4ccc(Cl)c(Cl)c4n(CC(=O)O)c3c2)CC1 [Compound 160]
Marked response: 5 to 25%

Exam item: And the next one, CC(C)c1ccc2c(=O)c3ccc(Cl)c(Cl)c3n(C)c2c1 [Compound 174] ?
Marked response: < 5%

Exam item: Record: O=C(O)Cn1c2cc(-c3cccc(F)c3)ccc2c(=O)c2ccc(Cl)c(Cl)c21 [Compound 152]
Marked response: 5 to 25%

Origin of values: patent US11414387B2
